meta.source: patent US11713335B2

Each entry below carries its recorded MIC.
# Tested on: WT E. coli
# experimental_details: Minimal inhibitory concentration in wild-type E. coli
# Assay type: cell-based, Escherichia coli
# condition_summary: Escherichia coli; wild-type E. coli, 37° C., 16 hours; read-out: MIC (μM) in WT E. coli

Below are worked cases with known answers.
* CO[C@@H]1[C@@H](OC(N)=O)[C@@H](O)[C@H](Oc2ccc3c(O)c(NC(=O)c4cccc(-c5ccccc5)c4)c(=O)oc3c2C)OC1(C)C | 26 µM
* COc1ccc(C(=O)Nc2c(O)c3ccc(O[C@@H]4OC(C)(C)[C@H](OC)[C@@H](OC(N)=O)[C@H]4O)c(C)c3oc2=O)cc1 | > 300 µM

Let us examine a further case.
Please fill in: MIC reported for CO[C@@H]1[C@@H](OC(N)=O)[C@@H](O)[C@H](Oc2ccc3c(O)c(NC(=O)c4ccccc4-c4ccccc4)c(=O)oc3c2C)OC1(C)C = > 300 µM

* * *

# System: S. aureus MW2
# experimental_details: Minimal inhibitory concentration, S. aureus MW2
# Assay type: cell-based
# condition_summary: Staphylococcus aureus, MRSA, 16 h, 16 hour minimal inhibitory concentration at 37° C.; read-out: MIC (μM) S. aureus MW2 (MRSA)
Each entry below carries its recorded MIC.
Answer with a number only, understood to be in µM.

* CO[C@@H]1[C@@H](OC(N)=O)[C@@H](O)[C@H](Oc2ccc3c(O)c(NC(=O)c4ccc(C)c(Oc5ccccc5)c4)c(=O)oc3c2C)OC1(C)C | 5
* CO[C@@H]1[C@@H](OC(N)=O)[C@@H](O)[C@H](Oc2ccc3c(O)c(NC(=O)c4cccc(Oc5cccc(Cl)c5)c4)c(=O)oc3c2C)OC1(C)C | 19
* CO[C@@H]1[C@@H](OC(N)=O)[C@@H](O)[C@H](Oc2ccc3c(O)c(NC(=O)c4cccc(N5CCOCC5)c4)c(=O)oc3c2C)OC1(C)C | 82
* CO[C@@H]1[C@@H](OC(N)=O)[C@@H](O)[C@H](Oc2ccc3c(O)c(NC(=O)c4cccc(Oc5ccc(Cl)cc5)c4)c(=O)oc3c2C)OC1(C)C | 10

Please fill in: MIC reported for CO[C@@H]1[C@@H](OC(N)=O)[C@@H](O)[C@H](Oc2ccc3c(O)c(NC(=O)c4cccc(-c5ccc(F)cc5)c4)c(=O)oc3c2C)OC1(C)C = 5

* * *

# Test system: E. coli MC4100
# experimental_details: Minimal inhibitory concentration, E. coli MC4100
# Type: cell-based
# condition_summary: 16 hour minimal inhibitory concentration at 37° C.; read-out: MIC (μM) E. coli MC4100 ara+
Each entry below carries its recorded MIC.

Below are worked cases with known answers.
- CO[C@@H]1[C@@H](OC(N)=O)[C@@H](O)[C@H](Oc2ccc3c(O)c(NC(=O)c4ccc5ccn(C)c5c4)c(=O)oc3c2C)OC1(C)C [Compound 70]: >200 µM
- CO[C@@H]1[C@@H](OC(N)=O)[C@@H](O)[C@H](Oc2ccc3c(O)c(NC(=O)c4cccc(-c5ccccc5C(F)(F)F)c4)c(=O)oc3c2C)OC1(C)C [Compound 60]: >200 µM

Let us examine a further case.
Please fill in: MIC reported for CO[C@@H]1[C@@H](OC(N)=O)[C@@H](O)[C@H](Oc2ccc3c(O)c(NC(=O)c4cc(-c5ccccc5)c(OCc5ccccc5)cc4OCc4ccccc4)c(=O)oc3c2C)OC1(C)C [Compound 66] = >200 µM
